target_of_assay: human TLR9 (Homo sapiens)
Sequence (Q9NR96 26-1032): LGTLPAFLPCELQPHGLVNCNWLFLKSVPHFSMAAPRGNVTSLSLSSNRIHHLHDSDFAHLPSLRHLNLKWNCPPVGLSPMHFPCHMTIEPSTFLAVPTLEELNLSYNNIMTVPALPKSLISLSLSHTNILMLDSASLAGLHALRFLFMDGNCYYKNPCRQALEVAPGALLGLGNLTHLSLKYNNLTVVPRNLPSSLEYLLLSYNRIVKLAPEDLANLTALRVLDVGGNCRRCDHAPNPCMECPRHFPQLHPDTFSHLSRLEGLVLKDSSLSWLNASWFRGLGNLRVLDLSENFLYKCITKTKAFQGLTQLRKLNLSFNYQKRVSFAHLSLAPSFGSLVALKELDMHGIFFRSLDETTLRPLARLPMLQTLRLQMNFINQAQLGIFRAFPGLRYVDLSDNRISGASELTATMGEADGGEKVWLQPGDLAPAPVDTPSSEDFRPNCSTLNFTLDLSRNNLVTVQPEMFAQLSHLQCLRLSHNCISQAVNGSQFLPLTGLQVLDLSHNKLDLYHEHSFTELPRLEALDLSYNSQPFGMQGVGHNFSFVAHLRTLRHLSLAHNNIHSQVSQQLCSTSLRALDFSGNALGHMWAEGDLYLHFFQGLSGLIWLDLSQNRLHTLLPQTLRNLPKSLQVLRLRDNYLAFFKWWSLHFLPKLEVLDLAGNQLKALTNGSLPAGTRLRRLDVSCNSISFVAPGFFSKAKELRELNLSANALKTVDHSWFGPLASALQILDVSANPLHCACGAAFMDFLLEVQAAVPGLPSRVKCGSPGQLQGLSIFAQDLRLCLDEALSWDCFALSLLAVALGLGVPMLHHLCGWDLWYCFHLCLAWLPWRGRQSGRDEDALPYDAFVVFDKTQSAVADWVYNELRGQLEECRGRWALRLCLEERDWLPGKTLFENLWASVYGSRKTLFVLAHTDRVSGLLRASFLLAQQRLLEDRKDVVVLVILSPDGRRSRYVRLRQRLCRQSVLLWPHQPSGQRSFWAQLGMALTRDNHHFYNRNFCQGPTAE
procedure_details: TLR9 inhibition reporter assay (HEK-Blue cells, SEAP reporter, ODN2006 stimulation)
condition_parameters: HEK-Blue cells overexpressing human TLR9, SEAP reporter, ODN2006 5 nM
pIC50: −log10 of the molar value.
Collected pIC50 values appear next to each entry.

Below, 6 molecules whose answers are already recorded.
{"molecule": "Cc1cc(-c2[nH]c3ccc(C4CCN(C(=O)C[C@@H](C)O)CC4)cc3c2C(C)C)cn2nnnc12", "obs_value": "4.30 to 6.00"}
{"molecule": "CNCCN1CCC(c2ccc3[nH]c(-c4ccc5nccnc5c4)c(C)c3c2)CC1", "obs_value": "6.00 to 7.00"}
{"molecule": "Cc1cc(-c2[nH]c3ccc(C4CCN(CC#N)CC4)cc3c2C(C)C)cn2ccnc12", "obs_value": "6.00 to 7.00"}
{"molecule": "CCc1c(-c2ccnc3[nH]ncc23)[nH]c2ccc(C3CCN(Cc4cncs4)CC3)cc12", "obs_value": "4.30 to 6.00"}
{"molecule": "CC(C)c1c(-c2ccnc3c2ccn3S(C)(=O)=O)[nH]c2ccc(C3CCN(C(=O)CN(C)C)CC3)cc12", "obs_value": "6.00 to 7.00"}
{"molecule": "Cc1cc(-c2[nH]c3ccc(C4CCN(C(=O)C5CC(=O)N(C)C5)CC4)cc3c2C(C)C)c2ccccc2n1 (stereo not drawn)", "obs_value": "< 4.30"}

Enquiry: # pIC50 lookup, item Cc1cc(-c2[nH]c3ccc(C4CCNCC4)cc3c2C(C)C)cc2c(O)c(C#N)cnc12
Return: 4.30 to 6.00

Enquiry: # pIC50 lookup, item Cc1nc2c(-c3[nH]c4ccc(C5CCN(C(=O)C[C@H](C)O)CC5)cc4c3C(C)C)ccc(C)n2n1
Return: < 4.30

Enquiry: # pIC50 lookup, item COc1cc(CN(C)C)cc(CN2CCC(c3ccc4[nH]c(-c5ccnc6[nH]ncc56)c(C(C)C)c4c3)CC2)c1O
Return: 6.00 to 7.00

Enquiry: # pIC50 lookup, item COc1cc(-c2[nH]c3ccc(C4CCN(C5CCOCC5)CC4)cc3c2C(C)C)cn2ccnc12
Return: 6.00 to 7.00
